assay-notes: inhibition of RSV-induced cytopathic effect – HEp-2 cells, primary 10 µM value included (AID 2391)
experimental-conditions: at 10 µM, stronger effect = higher value
Hit rate of the full screen: of about 310,000 compounds, about 410 (0.13%) were called active. Not shown: some 2% with an inconclusive outcome. A selection follows. Measured potencies and affinities stand elsewhere.
Please go through the items and note down their CPE inhibition.

Look up CPE inhibition of `COc1ccccc1OCCOCCOc1c(C)cc(C)cc1Br` and report it.
1.97% (inactive)

Look up CPE inhibition of `Cc1nc2ccccc2nc(C)c1=NOCc1ccc(C#N)cc1` and report it.
3.19% (inactive)

Look up CPE inhibition of `CCOC(=O)N1CCN(C(=O)COc2ccc3c(c2)C(=O)CC(C)(C)O3)CC1` and report it.
1.7% (inactive)

Look up CPE inhibition of `Cc1ccc(OCc2cc(C(=O)NCc3cnn(-c4cccc(F)c4)c3)no2)cn1` and report it.
-0.86% (inactive)

Look up CPE inhibition of `Cc1ccc(-c2nc3cccnc3s2)cc1NS(C)(=O)=O` and report it.
0.25% (inactive)

Look up CPE inhibition of `COCCn1c(-c2ccccc2)nc2oc3ccccc3c(=O)c2c1=O` and report it.
1.49% (inactive)

Look up CPE inhibition of `Clc1cccc(-c2nn3c(Cn4cnc5ccccc54)nnc3s2)c1` and report it.
34% (inactive)

Look up CPE inhibition of `Cc1cc(-c2nc3cccnc3s2)ccc1NS(=O)(=O)c1cccs1` and report it.
3.81% (inactive)

Look up CPE inhibition of `COC(=O)/C=C1\S/C(=N/NC(=O)c2ccc(OC)cc2)NC1=O` and report it.
-1.09% (inactive)

Look up CPE inhibition of `C/C(=N\O)c1oc2ccc3c(C)cc(=O)oc3c2c1C` and report it.
21.3% (inactive)

Look up CPE inhibition of `c1ccc2c(c1)ncn2Cc1nnc2sc(-c3ccncc3)nn12` and report it.
-0.84% (inactive)

Look up CPE inhibition of `O=C(Nc1ccc(Cl)c(C(F)(F)F)c1)[C@@H]1CC=C[C@@H]2CCN(Cc3ccccc3)C(=O)[C@@H]21` and report it.
2.53% (inactive)

Look up CPE inhibition of CC(C)CN1CCN(Cc2cnc(-c3ccc(Cl)cc3)nc2)CC1CCO (configuration not stated) and report it.
19.2% (inactive)

Look up CPE inhibition of `Cc1ccc(C(=O)Nc2ccc3c(c2)C(=O)NC3=O)cc1` and report it.
3.34% (inactive)

Look up CPE inhibition of `C=CCn1c(-c2cccn(Cc3ccc(Cl)cc3Cl)c2=O)n[nH]c1=S` and report it.
8.02% (inactive)

Look up CPE inhibition of O=C(NCC(c1ccco1)N1CCCCC1)c1ccc(NS(=O)(=O)c2ccc(F)cc2)cc1 (configuration not stated) and report it.
3.02% (inactive)

Look up CPE inhibition of `c1ccc2c(c1)nnn2Cc1nnc2sc(-c3ccncc3)nn12` and report it.
1.65% (inactive)

Look up CPE inhibition of `COC(=O)c1cc(NS(=O)(=O)c2ccc(NCc3cccnc3)c([N+](=O)[O-])c2)cc(C(=O)OC)c1` and report it.
1.44% (inactive)

Look up CPE inhibition of `O=C(N/N=C/c1cccnc1)c1cc(C2CC2)nc2ccccc12` and report it.
1.57% (inactive)

Look up CPE inhibition of Cc1ccsc1C(=O)NNC(=O)C1C2C=CC(C2)C1C(=O)O (configuration not stated) and report it.
0.87% (inactive)

Look up CPE inhibition of `Cc1ccc(CN(C)C(=O)COC(=O)CSc2ccc(C(N)=O)cc2[N+](=O)[O-])cc1` and report it.
-0.57% (inactive)

Look up CPE inhibition of Cn1c(C(O)c2ccccc2)nc(Cl)c1Cl (configuration not stated) and report it.
2.93% (inactive)

* * *

assay-notes: inhibition of RSV-induced cytopathic effect – HEp-2 cells, primary 10 µM value included (AID 2391)
experimental-conditions: at 10 µM, stronger effect = higher value
Out of some 310,000 compounds screened, about 410 (0.13%) were called active. Another 2% or so got no clear call; they are omitted. These entries were drawn from the full list. Entries with a potency or affinity are not part of this list.
assay-endpoint: CPE inhibition (%)
Lab book: enter the figure in %, no units written.

Look up CPE inhibition of `COc1ccc(S(=O)(=O)N2CCN(C(=O)c3ccc4ccccc4n3)CC2)cc1` and report it.
3.49

Look up CPE inhibition of `O=C(NC(=S)NNC(=O)c1ccccc1O)c1cccc([N+](=O)[O-])c1` and report it.
16.2

Look up CPE inhibition of `O=C(O)c1cc2nc(-c3ccccc3)cc(-c3ccccc3)n2n1` and report it.
0.05

Look up CPE inhibition of `CC1CCN(C(=O)c2cc3nc(-c4ccccc4)cc(-c4ccccc4)n3n2)CC1` and report it.
-0.54

Look up CPE inhibition of `C/C(CCc1ccccc1)=N\NC(=O)CC(=O)NCCc1ccccc1` and report it.
1.3

Look up CPE inhibition of `CN1CCN(C(=O)c2cc3nc(-c4ccccc4)cc(-c4ccccc4)n3n2)CC1` and report it.
-2.59

Look up CPE inhibition of `COc1ccc(Cl)cc1NC(=O)NCc1cccnc1` and report it.
2.51

Look up CPE inhibition of `COc1ccccc1CNC(=O)c1cc2c(=O)[nH]c3ccccc3c2n1C` and report it.
16.5

Look up CPE inhibition of `CCOc1ccccc1CNC(=O)c1cc2occc2n1C` and report it.
2.63

Look up CPE inhibition of `COc1ccccc1CNC(=O)c1oc2ccccc2c1C` and report it.
1.89

Look up CPE inhibition of `Cc1nc(SCC(=O)NCc2ccco2)c2c(=O)n(C)c(=O)n(CC(C)C)c2n1` and report it.
1.51

* * *

Please go through the items and note down their CPE inhibition.
assay-notes: inhibition of RSV-induced cytopathic effect – HEp-2 cells, primary 10 µM value included (AID 2391)
experimental-conditions: at 10 µM, stronger effect = higher value
The campaign covered roughly 310,000 compounds. About 410 (0.13%) were called active. Another 2% or so got no clear call; they are omitted. Not all results are given here. Measured potencies and affinities stand elsewhere.
Lab book: enter the figure in %, no units written.

Look up CPE inhibition of `O=C(NC(=S)Nc1ccccc1O)c1ccc(-c2ccc(Cl)cc2)o1` and report it.
-1.25

Look up CPE inhibition of `Cc1ccc(NC(=S)NC(=O)c2ccc(-c3ccc(Cl)cc3)o2)c(O)c1` and report it.
1.42

Look up CPE inhibition of `COC(=O)c1ccccc1NC(=O)c1ccc(-c2ccc(Br)cc2)o1` and report it.
4.75

Look up CPE inhibition of `N#CCCN(CCC#N)C(=O)COc1ccc(Cl)cc1Cl` and report it.
2.86

Look up CPE inhibition of `Cc1c(C(=O)N(C)Cc2cccc(F)c2)oc2c(Cl)cccc12` and report it.
18

Look up CPE inhibition of Nc1ccn([C@@H]2O[C@H](CO)[C@@H](O)C2O)c(=O)n1 (stereo partly drawn) and report it.
-2.12

Look up CPE inhibition of NC(=O)c1ccsc1NC(=O)COC(=O)C1CC2CCCC(C1)C2=O (stereo not drawn) and report it.
1.41

Look up CPE inhibition of `CC(=O)Nc1ccc(NC(=O)COc2ccc(Cl)cc2Cl)cc1` and report it.
5.13

Look up CPE inhibition of `Cc1ccc(-c2nnn(CC(=O)N(CC(=O)NC3CCCC3)c3ccc(F)cc3)n2)o1` and report it.
2.25

Look up CPE inhibition of `CCOc1ccc(S(=O)(=O)N(C)CC(=O)NCc2ccccn2)cc1Cl` and report it.
1.39

Look up CPE inhibition of `O=C(O)c1ccc(NC(=S)NC(=O)c2ccc(-c3ccc(Br)cc3)o2)cc1` and report it.
10.7

Look up CPE inhibition of CC1(C(=O)Nc2nc3ccccc3s2)CC1(Br)Br (stereo not drawn) and report it.
9.49

Look up CPE inhibition of `O=S(=O)(NC(=NCc1ccccc1)c1ccccc1F)c1ccccc1` and report it.
0.88

Look up CPE inhibition of CCOC(=O)N1CCC(N2CCCC(CO)(Cc3ccccc3C)C2)CC1 (stereo not drawn) and report it.
0.07

Look up CPE inhibition of Cc1ccc(C(CCN(Cc2ccccc2)C(=O)c2ccco2)c2ccco2)cc1 (stereo not drawn) and report it.
6.53

Look up CPE inhibition of `COc1cccc(OC)c1C(=O)Nc1ccc(C)cc1C(=O)c1ccccc1` and report it.
6.46

Look up CPE inhibition of `CCOc1ccc2nc(NS(=O)(=O)c3cccs3)sc2c1` and report it.
1.43

Look up CPE inhibition of `Cc1cc(C)n2nc(-c3ccccc3)cc2n1` and report it.
-2.3

Look up CPE inhibition of `Nc1ccn([C@@H]2O[C@H](CO)[C@@H](O)[C@@H]2O)c(=O)n1` and report it.
-0.64

Look up CPE inhibition of `COc1ccc(-c2cc3nc(C)cc(C)n3n2)cc1` and report it.
2.75

Look up CPE inhibition of `C/C(=N\O)c1ccc2[nH]ccc2c1` and report it.
5.17

Look up CPE inhibition of COC(=O)c1sccc1S(=O)(=O)N1CCCC(N(C)CCc2ccccn2)C1 (stereo not drawn) and report it.
-0.75

Look up CPE inhibition of O=c1[nH]c(C2CCCN(S(=O)(=O)c3ccccc3)C2)nc2c1nnn2Cc1ccc(OC(F)(F)F)cc1 (stereo not drawn) and report it.
1.75
